# Tested on: NCI-H322M lung
# EXPERIMENT_SUMMARY: NCI-60 one-dose screen, 48 h (100 = growth as untreated, 0 = no growth, -100 = all killed)
# STUDY_CONDITIONS: 10 µM unless noted
This is part of a sample that, as a whole, favours compounds with a hit. Of some 83,000 tested, about 20% had one in any assay.
List of growth values.
Your answer is read as %, so omit the unit and give the number.

input: So what does the record say about growth for C=C(C)[C@@H]1CC[C@]2(C(=O)N3CCN(C)CC3)CC[C@]3(C)[C@H](CC[C@@H]4[C@@]5(C)C/C(=C/c6ccc(C(F)(F)F)cc6)C(=O)C(C)(C)[C@@H]5CC[C@]43C)[C@@H]12 ?
output: 96.5

input: So what does the record say about growth for COc1ccc(-c2nc3c(c(C)nn3-c3ccc(F)cc3)c(=O)[nH]2)cc1 ?
output: 78.7

input: So what does the record say about growth for N#Cc1c(-c2ccc(O)cc2)c2c(N)nn(-c3ccccc3)c2[nH]c1=O ?
output: 103

====

List of growth values.
# System: PC-3 prostate
# EXPERIMENT_SUMMARY: NCI-60 one-dose screen, 48 h (100 = growth as untreated, 0 = no growth, -100 = all killed)
# STUDY_CONDITIONS: 10 µM unless noted
About 83,000 compounds went through this panel and 20% of them were active in at least one assay; those are over-represented in the sample as a whole.
Your answer is read as %, so omit the unit and give the number.

Nc1nc2c(c(=O)[nH]1)C(c1ccc3c(c1)OCO3)C=C(C(=O)O)N2 (centres undefined)	113

input: So what does the record say about growth for NCCn1cc(-c2nc(-c3c[nH]c4ncccc34)cs2)c2cc(F)ccc21 ?
output: 58.5

input: So what does the record say about growth for NC(=O)[C@@H]1CC2CCC1C2 (some centres undefined) ?
output: 91

input: So what does the record say about growth for CCN1CCN(C(=O)[C@@]2(C)CC[C@]3(C)CC[C@]4(C)C(=CC(=O)[C@@H]5[C@@]6(C)CC[C@H](OCCC#N)C(C)(C)[C@@H]6CC[C@]54C)[C@@H]3C2)CC1 ?
output: 72.1

input: So what does the record say about growth for Oc1ccccc1/C=N\NC(=S)Nc1ccc(F)cc1 ?
output: 40

input: So what does the record say about growth for COc1cc2c(cc1-c1c(C)noc1C)ncc1nc(C3CC3)n([C@H](C)COC(F)F)c12 ?
output: 39.1

input: So what does the record say about growth for C=C(C)[C@@H]1CC[C@]2(CN)CC[C@]3(C)[C@H](CC[C@@H]4[C@@](C)(CCCN)[C@H](C(=C)C)CC[C@]43C)[C@@H]12 ?
output: 71.5

input: So what does the record say about growth for NC1=C(C/C(N)=N\O)C(c2ccccc2Cl)c2c(ccc3ccccc23)O1 (centres undefined) ?
output: 74.2

input: So what does the record say about growth for Clc1ccccc1-c1nc(Nc2nc3ccccc3s2)nc(C(Cl)(Cl)Cl)n1 ?
output: 40.8

====

# Test system: TK-10 renal
# EXPERIMENT_SUMMARY: NCI-60 one-dose screen, 48 h
# STUDY_CONDITIONS: 10 µM unless noted
This is part of a sample that, as a whole, favours compounds with a hit. Of some 83,000 tested, about 20% had one in any assay. Active and inactive are the calls of the source. Rule for the calls: active = growth percent below 10; inactive = the rest.
Hi there, use one of these labels in your reply, thanks! 1 (active), 0 (inactive)

O=C(/C=C/c1cccc2ccccc12)Nc1ncc(Cc2ccccc2)s1	0
Cc1ccc(-c2nc([P+](c3ccccc3)(c3ccccc3)c3ccccc3)c(N3C[C@H]4C[C@H](C3)c3cccc(=O)n3C4)o2)cc1	0
C/C(=N/NC(N)=S)C(=O)O	0

input: So what was the verdict on CN(C)c1ccc(-c2ccc(-c3ccc(C(=N)N)c(F)c3)s2)cc1 in this test?
output: 1

input: So what was the verdict on O=C1c2cc3c(cc2-c2c1c1ccc(F)cc1c(=O)n2CCCN1CCOCC1)OCO3 in this test?
output: 0

====

# Test system: SR leukemia
# EXPERIMENT_SUMMARY: NCI-60 one-dose screen, 48 h
# STUDY_CONDITIONS: 10 µM unless noted
The panel holds about 83,000 compounds, 20% with a hit somewhere; the sample as a whole holds those more often. Active and inactive are the calls of the source. The calls were made as follows: active = growth percent below 10; inactive = the rest.
Hi there, use one of these labels in your reply, thanks! 1 = active, -1 = inactive

Past entries and their recorded results:
COc1cc(NC(C)CN(CC(C)C)C(C)C)c2ncccc2c1 (stereo not drawn)	-1
CN1CCN(CCOc2ccc(-c3cnc4c(-c5ccccc5F)cnn4c3)cc2)CC1	1
NC(Cc1ccc(O)cc1)C(=O)N/N=C/c1ccccc1O (stereo not drawn)	-1
CCN1CCN(C(=O)[C@@]2(C)CC[C@]3(C)CC[C@]4(C)C(=CC(=O)[C@@H]5[C@@]6(C)CC[C@H](OCCC#N)C(C)(C)[C@@H]6CC[C@]54C)[C@@H]3C2)CC1	1
CC(C)(C)c1ccc(OP(=S)(N/N=C/c2ccccc2O)Oc2ccc(C(C)(C)C)cc2)cc1	-1
O=C(CCCCCn1c2ccccc2c2c3c(c4c5ccccc5[nH]c4c21)C(=O)N(O)C3=O)N1CCOCC1	1
CC1(c2ccccc2)OC1C(=O)O (stereo not drawn)	-1
COC(=O)[C@]12CC[C@@H](C(=O)/C=C/c3cccnc3)[C@@H]1[C@H]1CC[C@@H]3[C@@]4(C)C/C(=C/c5cccnc5)C(=O)C(C)(C)[C@@H]4CC[C@@]3(C)[C@]1(C)CC2	1
Nc1ccccc1NC(=O)c1ccc(CN2CCC/C(=C\c3ccccn3)C2=O)cc1	-1
Cn1c(=O)c2c(nc(N3CCCC3)n2C)n(C)c1=O	-1

input: So what was the verdict on C=C(C)[C@@H]1CC[C@]2(/C=N/Nc3ccncc3)CC[C@]3(C)[C@H](CC[C@@H]4[C@@]5(C)CCCNC(C)(C)[C@@H]5CC[C@]43C)[C@@H]12 in this test?
output: -1

====

# Test system: BT-549 breast
# EXPERIMENT_SUMMARY: NCI-60 one-dose screen, 48 h
# STUDY_CONDITIONS: 10 µM unless noted
# Description: Growth inhibition of the BT-549 human tumor cell line is measured as a screen for anti-cancer activity. Cells are grown in 96 well plates and exposed to the test compound for 48 hours. Compounds are tested at a single concentration, which is 10^-5 M for most compounds. The reported endpoint is percent growth (GI% or GIPRCNT), where numbers from 0 - 100% represent growth inhibition, and numbers from -100% - 0 represent cell death. For example, a value of 40 represents 60% growth inhibition. […]
The panel holds about 83,000 compounds, 20% with a hit somewhere; the sample as a whole holds those more often. The source made the active and inactive calls. How the source made its calls: active means growth percent below 10; inactive means the rest.
Hi there, use one of these labels in your reply, thanks! active, inactive

input: So what was the verdict on CCCCC[C@H]1C/C=C2/C(=O)C=C[C@@H]2C/C=C\CCCC(=O)O[C@@H](CCCCC)C/C=C2/C(=O)C=C[C@@H]2C/C=C\CCCC(=O)O1 in this test?
output: active

input: So what was the verdict on CC(C)=CCC[C@](C)(O)[C@H]1CC[C@]2(C)[C@@H]1CC[C@@H]1[C@@]3(C)C/C(=C/c4ccc(Br)cc4)C(=O)C(C)(C)[C@@H]3CC[C@]12C in this test?
output: inactive

input: So what was the verdict on N#C/C(=C\c1ccc(-c2ccc(Br)cc2)o1)c1nc(-c2cccs2)cs1 in this test?
output: inactive

input: So what was the verdict on C/C(=N\NC(=O)C(C)SC(C)C(=O)N/N=C(\C)c1cccnc1)c1cccnc1 (stereo not given) in this test?
output: inactive

====

# Tested on: NCI-H460 lung
# EXPERIMENT_SUMMARY: NCI-60 one-dose screen, 48 h
# STUDY_CONDITIONS: 10 µM unless noted
Compounds without any hit were thinned out: in the full panel of roughly 83,000, 20% have a hit. The source made the active and inactive calls. The calls were made as follows: active = growth percent below 10; inactive = the rest.
Hi there, use one of these labels in your reply, thanks! active, inactive

Past entries and their recorded results:
COc1ccc2[nH]c(-c3ccc(Cl)cc3)cc(=O)c2c1	inactive
c1ccc(C2Cc3ccccc3C2=NC2CCCCC2)cc1 (stereo not given)	inactive
Cc1[c-]onc1C.Cc1[c-]onc1C.[Ag].[Ag].[NH-]S(=O)(=O)c1ccc(N=Nc2cc(N=Nc3ccc(S([NH-])(=O)=O)cc3)c3c(NC(=O)C(Cl)Cl)cccc3c2OC(=O)C(Cl)Cl)cc1	inactive
c1ccc(-c2nc(Nc3ccc(-c4nc5ccccc5[nH]4)cc3)nc(N3CCOCC3)n2)cc1	active
c1cnc2[nH]cc(-c3csc(-c4cn(CCCN5CCCCC5)c5ccccc45)n3)c2c1	inactive
CC(C)(C)c1nc(-c2ccc(O)c(O)c2)cs1	inactive

input: So what was the verdict on O=C(/C(=C(\C(=O)c1ccccc1)c1ccccc1)c1ccccc1)c1ccccc1 in this test?
output: inactive

input: So what was the verdict on O=C(NO)c1ccc(Cn2c(=O)n(-c3ccccc3)c(=O)c3ccccc32)cc1 in this test?
output: inactive

input: So what was the verdict on CCc1ccc(-c2ccc(Nc3ccccc3)nn2)cc1S(N)(=O)=O in this test?
output: inactive

input: So what was the verdict on NCCNc1nc(-c2ccccc2)nc2nc(-c3ccccc3)oc12 in this test?
output: inactive
